Reference source for all entries: patent US20260226066A1

I'd appreciate it if you could supply pIC50 values for the items below.
- STUDY TARGET: 15-PGDH/HPGD (Homo sapiens, UniProt P15428)
- Sequence (P15428 1-266): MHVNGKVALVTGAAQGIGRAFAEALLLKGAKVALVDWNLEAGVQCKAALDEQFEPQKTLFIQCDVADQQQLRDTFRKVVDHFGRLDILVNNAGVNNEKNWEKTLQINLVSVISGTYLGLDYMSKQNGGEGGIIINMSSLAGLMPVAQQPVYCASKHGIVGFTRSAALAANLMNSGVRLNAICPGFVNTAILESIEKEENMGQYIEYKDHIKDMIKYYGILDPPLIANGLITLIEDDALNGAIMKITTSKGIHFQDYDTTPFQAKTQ
- ASSAY NAME: hPGDH inhibitor screening biochemical assay
- EXPERIMENTAL PARAMETERS: 10 nM enzyme, fluorescence ex/em 340/485 nm
pIC50: −log10 of the molar value.

CC1CC([S+]([O-])c2cnc3c(cnn3-c3cccc(-c4nnc[nH]4)c3)c2)C1 (stereo not shown) [Compound 120A] : > 7.00
CC1CC([S+]([O-])c2cnc3c(cnn3-c3cccc(-c4nnc[nH]4)c3)c2)C1 (stereo not shown) [Compound 120D] : > 7.00
COC(C)(C)CC[S+]([O-])c1cnc2c(cnn2-c2cccc(-c3nnc[nH]3)c2)c1 (single isomer, unassigned) [Compound 104B] : ≤ 6.00
[O-][S+](c1cnc2c(cnn2-c2cncc(-c3nnc[nH]3)c2)c1)C1CCC1 (stereo not shown) [Compound 99A] : > 7.00

Provide pIC50 for all items below, preserving their order.
1. [O-][S+](c1cnc2c(cnn2-c2cccc(-c3ccc(O)nc3)c2)c1)C1CCC(F)(F)C1 (single isomer, unassigned) [Compound 5C]
2. COCC1CC([S+]([O-])c2cnc3c(cnn3-c3cccc(-c4nnc[nH]4)c3)c2)C1 (stereo not shown) [Compound 109C]
3. [O-][S+](c1cnc2c(ccn2-c2cccc(-c3nnc[nH]3)c2)c1)C1CCC1 (single isomer, unassigned) [Compound 50B]

### Response
> 7.00
≤ 6.00
> 7.00

I need pIC50 for every entry listed below, if you could help.
1. COc1cc(-c2cccc(-n3ncc4cc([S+]([O-])C5CCC5)cnc43)c2)ccn1 (single isomer, unassigned) [Compound 93A]
2. O=S(=O)(c1cnc2c(cnn2-c2cc(Cl)cc(-c3nnc[nH]3)c2)c1)C1CCCC1 [Compound 31]
3. Cc1cc(-c2cccc(-n3ncc4cc([S+]([O-])C5CCC(F)(F)C5)cnc43)c2)ccn1 (stereo not shown) [Compound 11B]

### Response
["> 7.00", "> 7.00", "6.00 to 7.00"]

State recorded pIC50 for all listed compounds.
1. O=c1cc(-c2cccc(-n3ncc4cc([S+]([O-])C5CCC5)cnc43)c2)cc[nH]1 (stereo not shown) [Compound 94A]
2. [O-][S+](CC1CCC1)c1cnc2c(cnn2-c2ccc(-c3nnc[nH]3)cc2)c1 (stereo not shown) [Compound 47]
3. COCCC[S+]([O-])c1cnc2c(cnn2-c2ccc3nc(N4CCOCC4)nn3c2)c1 (single isomer, unassigned) [Compound 119A]
4. [O-][S+](c1cnc2c(cnn2-c2cccc(-c3nnc[nH]3)c2)c1)C1CC(F)(F)C1 (single isomer, unassigned) [Compound 7B]
5. CC(C)CC[S+]([O-])c1cnc2c(cnn2-c2ccc(CCC(=O)O)c(F)c2)c1 (stereo not shown) [Compound 121A]
6. CC(C)CC[S+]([O-])c1cnc2c(ccn2-c2cccc(-c3nnc[nH]3)c2)c1 (single isomer, unassigned) [Compound 54A]
7. COCCC[S+]([O-])c1cnc2c(cnn2-c2ccc(N3CCOC3=O)nc2)c1 (single isomer, unassigned) [Compound 115A]

### Response
1. > 7.00
2. > 7.00
3. > 7.00
4. > 7.00
5. > 7.00
6. > 7.00
7. > 7.00

Below is a list of compounds. For each, state its recorded pIC50.
1. CC(C)CC[S+]([O-])c1cnc2c(cnn2-c2cccc(-c3nnc[nH]3)c2)c1 (stereo not shown) [Compound 21A]
2. O=C(O)c1ccc(-n2ncc3cc([S+]([O-])C4CC(F)(F)C4)cnc32)cc1 (single isomer, unassigned) [Compound 10B]
3. [O-][S+](c1cnc2c(ccn2-c2ccc(-c3nnc[nH]3)cc2)c1)C1CCCC1 (stereo not shown) [Compound 72]
4. [O-][S+](c1cnc2c(cnn2-c2cccc(-c3ccnc(N4CCOCC4)c3)c2)c1)C1CCC1 (stereo not shown) [Compound 91B]
5. COCCC[S+]([O-])c1cnc2c(cnn2-c2cccc(-c3nnc[nH]3)c2)c1 (stereo not shown) [Compound 29]
6. [O-][S+](c1cnc2c(cnn2-c2cccc(-c3nnc[nH]3)c2)c1)C1C[C@@H]2C[C@@H]2C1 (single isomer, unassigned) [Compound 123B]
7. CCOC(=O)Nc1cncc(-n2ccc3cc(S(=O)(=O)C4CCC(F)(F)CC4)cnc32)c1 [Compound 65]
8. COc1cc(-c2cccc(-n3ncc4cc([S+]([O-])C5CCC5)cnc43)c2)ccn1 (single isomer, unassigned) [Compound 93B]

### Response
6.00 to 7.00
> 7.00
> 7.00
6.00 to 7.00
> 7.00
> 7.00
6.00 to 7.00
≤ 6.00

For every listed record, write down its pIC50.
1. Cc1nnc(-c2cccc(-n3ncc4cc([S+]([O-])C5CC(F)(F)C5)cnc43)c2)[nH]1 (stereo not shown) [Compound 97B]
2. CCCC[S+]([O-])c1cnc2c(ccn2-c2cc(F)cc(NC(=O)OCC)c2)c1 (single isomer, unassigned) [Compound 56B]
3. CC(C)CC[S+]([O-])c1cnc2c(ccn2-c2cncc(-c3nnc[nH]3)c2)c1 (single isomer, unassigned) [Compound 53A]

### Response
6.00 to 7.00
6.00 to 7.00
> 7.00
